- Test system: Pseudomonas aeruginosa
- TEST_METHOD_NOTES: Antibacterial activity against Pseudomonas aeruginosa incubated for 24 hrs by agar dilution method
- Assay type: functional
READOUT_TYPE: MIC (µg/mL)
Numbers only, in µg/mL.

Answered examples (7):
# MOLECULE, ASSAY_SYSTEM, MIC / µg/mL
rows = [
    ("N#Cc1ccc(Cn2cc(CN3c4ccccc4Sc4cc(/C=N/NC(=O)c5ccc(F)cc5)ccc43)nn2)cc1", "Pseudomonas aeruginosa", 12.5),
    ("Cc1ccc(C(=O)N/N=C/c2ccc3c(c2)Sc2ccc(C(F)(F)F)cc2N3Cc2cn(Cc3ccc(C#N)cc3)nn2)cc1", "Pseudomonas aeruginosa", 50),
    ("CN1c2ccccc2Sc2cc(COCc3cn(Cc4ccccc4)nn3)ccc21", "Pseudomonas aeruginosa", 100),
    ("Cc1ccc(Cn2cc(CO/N=C/c3ccc4c(c3)Sc3ccccc3N4C)nn2)cc1", "Pseudomonas aeruginosa", 100),
    ("O=C(O)c1cn(C2CC2)c2cc(N3CCNCC3)c(F)cc2c1=O [CIPROFLOXACIN]", "Pseudomonas aeruginosa", 4),
    ("N#Cc1ccc(Cn2cc(CN3c4ccc(/C=N/NC(=O)c5ccc([N+](=O)[O-])cc5)cc4Sc4ccc(C(F)(F)F)cc43)nn2)cc1", "Pseudomonas aeruginosa", 50),
    ("N#Cc1ccc(Cn2cc(CN3c4ccc(/C=N/NC(=O)c5ccccc5)cc4Sc4ccc(C(F)(F)F)cc43)nn2)cc1", "Pseudomonas aeruginosa", 50),
]

// query Provide MIC value for the following molecule: "Fc1ccc(Cn2cc(CN3c4ccccc4Sc4ccccc43)nn2)cc1"
// result 12.5

---

So I've got a bunch of compounds here, and I need their MIC values.
- Tested on: Staphylococcus aureus
- TEST_METHOD_NOTES: Antibacterial activity against Staphylococcus aureus incubated for 24 hrs by agar dilution method
- Format: functional
Dear colleague, please send the value followed by its unit.

Answered examples (4):
# COMPOUND_STRING, ASSAY_SYSTEM, MIC
records = [
    ("COc1ccc(Cn2cc(CO/N=C/c3ccc4c(c3)Sc3ccccc3N4C)nn2)cc1", "Staphylococcus aureus", "50 µg/mL"),
    ("CN1c2ccccc2Sc2cc(COCc3cn(Cc4ccc([N+](=O)[O-])cc4)nn3)ccc21", "Staphylococcus aureus", "25 µg/mL"),
    ("COc1ccc(Cn2cc(COCc3ccc4c(c3)Sc3ccccc3N4C)nn2)cc1", "Staphylococcus aureus", "50 µg/mL"),
    ("N#Cc1ccc(Cn2cc(CN3c4ccccc4Sc4cc(/C=N/NC(=O)c5ccc(F)cc5)ccc43)nn2)cc1", "Staphylococcus aureus", "6.25 µg/mL"),
]

// query Provide MIC value for the following compound: "N#Cc1ccc(Cn2cc(CN3c4ccccc4Sc4cc(/C=N/NC(=O)c5ccncc5)ccc43)nn2)cc1"
// result 12.5 µg/mL

---

- Test system: Staphylococcus aureus
- TEST_METHOD_NOTES: Antibacterial activity against Staphylococcus aureus incubated for 24 hrs by agar dilution method
- Assay type: functional
READOUT_TYPE: MIC (µg/mL)
Give bare numbers, in µg/mL.

Quick batch: MIC for everything below.
1. N#Cc1ccc(Cn2cc(CN3c4ccc(/C=N/NC(=O)c5ccc([N+](=O)[O-])cc5)cc4Sc4ccc(C(F)(F)F)cc43)nn2)cc1
2. N#Cc1ccc(Cn2cc(CN3c4ccc(/C=N/NC(=O)c5cnccn5)cc4Sc4ccc(C(F)(F)F)cc43)nn2)cc1
3. N#Cc1ccc(Cn2cc(CN3c4ccccc4Sc4ccccc43)nn2)cc1
4. CN1c2ccccc2Sc2cc(COCc3cn(Cc4ccccc4)nn3)ccc21
5. CN1c2ccccc2Sc2cc(/C=N/OCc3cn(Cc4ccc(C#N)cc4)nn3)ccc21

// result
[25, 50, 6.25, 50, 12.5]

---

So I've got a bunch of compounds here, and I need their MIC values.
- Tested on: Staphylococcus aureus
- TEST_METHOD_NOTES: Antibacterial activity against Staphylococcus aureus incubated for 24 hrs by agar dilution method
- Format: functional
Give bare numbers, in µg/mL.

Answered examples (3):
# COMPOUND_STRING, ASSAY_SYSTEM, MIC (µg/mL)
measured = [
    ("CN1c2ccccc2Sc2cc(/C=N/OCc3cn(Cc4ccc(F)cc4)nn3)ccc21", "Staphylococcus aureus", 12.5),
    ("Cc1ccc(C(=O)N/N=C/c2ccc3c(c2)Sc2ccccc2N3Cc2cn(Cc3ccc(C#N)cc3)nn2)cc1", "Staphylococcus aureus", 25),
    ("CN1c2ccccc2Sc2cc(COCc3cn(Cc4ccc(C#N)cc4)nn3)ccc21", "Staphylococcus aureus", 12.5),
]

// query Provide MIC value for the following compound: "Fc1ccc(Cn2cc(CN3c4ccccc4Sc4ccccc43)nn2)cc1"
// result 12.5

---

- Tested on: Staphylococcus aureus
- TEST_METHOD_NOTES: Antibacterial activity against Staphylococcus aureus incubated for 24 hrs by agar dilution method
- Format: functional
READOUT_TYPE: MIC

# COMPOUND_STRING, MIC
records = [
    ("N#Cc1ccc(Cn2cc(CN3c4ccc(/C=N/NC(=O)c5ccncc5)cc4Sc4ccc(C(F)(F)F)cc43)nn2)cc1", "50 µg/mL"),
]

Quick batch: MIC for everything below.
1. Cc1ccc(C(=O)N/N=C/c2ccc3c(c2)Sc2ccc(C(F)(F)F)cc2N3Cc2cn(Cc3ccc(C#N)cc3)nn2)cc1
2. CN1c2ccccc2Sc2cc(COCc3cn(Cc4ccccc4F)nn3)ccc21
3. CN1c2ccccc2Sc2cc(/C=N/OCc3cn(Cc4ccccc4)nn3)ccc21

// result
1. 25 µg/mL
2. 25 µg/mL
3. 50 µg/mL

Quick batch: MIC for everything below.
1. N#Cc1ccc(Cn2cc(CN3c4ccc(/C=N/NC(=O)c5cccnc5)cc4Sc4ccc(C(F)(F)F)cc43)nn2)cc1
2. Cc1ccc(Cn2cc(CO/N=C/c3ccc4c(c3)Sc3ccccc3N4C)nn2)cc1
3. Cc1ccc(Cn2cc(CN3c4ccccc4Sc4ccccc43)nn2)cc1
4. CN1c2ccccc2Sc2cc(COCc3cn(Cc4ccc(F)cc4)nn3)ccc21
5. O=[N+]([O-])c1ccc(Cn2cc(CN3c4ccccc4Sc4ccccc43)nn2)cc1

// result
1: 50 µg/mL; 2: 25 µg/mL; 3: 50 µg/mL; 4: 25 µg/mL; 5: 50 µg/mL

---

- TEST_METHOD_NOTES: Cytotoxicity against African green monkey Vero cells assessed as cell growth inhibition at 6.25 ug/ml incubated for 72 hrs by MTT assay relative to control
- Format: cell-based
- CONDITIONS_USED: chlorocebus sabaeus, read-out: GI
So I've got a bunch of compounds here, and I need their inhibition at 72 h, 6.25 ug/ml values.
Give bare numbers, in %.

Answered examples (4):
# COMPOUND_STRING, READOUT_TYPE, VALUE_OBSERVED
records = [
    ("N#Cc1ccc(Cn2cc(CN3c4ccccc4Sc4cc(/C=N/NC(=O)c5cnccn5)ccc43)nn2)cc1", "inhibition at 72 h, 6.25 ug/ml", 12.3),
    ("Fc1ccc(Cn2cc(CN3c4ccccc4Sc4ccccc43)nn2)cc1", "inhibition at 72 h, 6.25 ug/ml", 8.34),
    ("N#Cc1ccc(Cn2cc(CN3c4ccc(/C=N/NC(=O)c5ccc([N+](=O)[O-])cc5)cc4Sc4ccc(C(F)(F)F)cc43)nn2)cc1", "inhibition at 72 h, 6.25 ug/ml", 8.91),
    ("N#Cc1ccc(Cn2cc(CN3c4ccccc4Sc4cc(/C=N/NC(=O)c5ccccc5)ccc43)nn2)cc1", "inhibition at 72 h, 6.25 ug/ml", 13.4),
]

Proceeding to the next compound to report its inhibition at 72 h, 6.25 ug/ml.
// query Provide inhibition at 72 h, 6.25 ug/ml value for the following compound: "COc1ccc(Cn2cc(CN3c4ccccc4Sc4ccccc43)nn2)cc1"
// result 7.57

---

So I've got a bunch of compounds here, and I need their MIC values.
- Test system: Pseudomonas aeruginosa
- TEST_METHOD_NOTES: Antibacterial activity against Pseudomonas aeruginosa incubated for 24 hrs by agar dilution method
- Type: functional
One number for each entry, in µg/mL.

Answered examples (5):
# COMPOUND_STRING, ASSAY_SYSTEM, VALUE_OBSERVED
data = [
    ("N#Cc1ccc(Cn2cc(CN3c4ccccc4Sc4cc(/C=N/NC(=O)c5ccc([N+](=O)[O-])cc5)ccc43)nn2)cc1", "Pseudomonas aeruginosa", 50),
    ("N#Cc1ccc(Cn2cc(CN3c4ccccc4Sc4cc(/C=N/NC(=O)c5ccncc5)ccc43)nn2)cc1", "Pseudomonas aeruginosa", 25),
    ("N#Cc1ccc(Cn2cc(CN3c4ccc(/C=N/NC(=O)c5ccc(F)cc5)cc4Sc4ccc(C(F)(F)F)cc43)nn2)cc1", "Pseudomonas aeruginosa", 12.5),
    ("COc1ccc(Cn2cc(CO/N=C/c3ccc4c(c3)Sc3ccccc3N4C)nn2)cc1", "Pseudomonas aeruginosa", 100),
    ("CN1c2ccccc2Sc2cc(COCc3cn(Cc4ccc(F)cc4)nn3)ccc21", "Pseudomonas aeruginosa", 50),
]

Quick batch: MIC for everything below.
1. N#Cc1ccc(Cn2cc(CN3c4ccc(/C=N/NC(=O)c5cccnc5)cc4Sc4ccc(C(F)(F)F)cc43)nn2)cc1
2. CN1c2ccccc2Sc2cc(COCc3cn(Cc4ccc([N+](=O)[O-])cc4)nn3)ccc21
3. O=[N+]([O-])c1ccc(Cn2cc(CN3c4ccccc4Sc4ccccc43)nn2)cc1
4. CN1c2ccccc2Sc2cc(/C=N/OCc3cn(Cc4ccccc4F)nn3)ccc21

// result
1. 100
2. 50
3. 100
4. 25

Quick batch: MIC for everything below.
1. COc1ccc(Cn2cc(COCc3ccc4c(c3)Sc3ccccc3N4C)nn2)cc1
2. N#Cc1ccc(Cn2cc(CN3c4ccc(/C=N/NC(=O)c5ccncc5)cc4Sc4ccc(C(F)(F)F)cc43)nn2)cc1
3. Cc1ccc(Cn2cc(CN3c4ccccc4Sc4ccccc43)nn2)cc1
4. N#Cc1ccc(Cn2cc(CN3c4ccccc4Sc4cc(/C=N/NC(=O)c5cnccn5)ccc43)nn2)cc1
5. N#Cc1ccc(Cn2cc(CN3c4ccccc4Sc4ccccc43)nn2)cc1

// result
1: 50; 2: 100; 3: 100; 4: 100; 5: 12.5

Quick batch: MIC for everything below.
1. N#Cc1ccc(Cn2cc(CN3c4ccc(/C=N/NC(=O)c5cnccn5)cc4Sc4ccc(C(F)(F)F)cc43)nn2)cc1
2. Cc1ccc(C(=O)N/N=C/c2ccc3c(c2)Sc2ccccc2N3Cc2cn(Cc3ccc(C#N)cc3)nn2)cc1
3. N#Cc1ccc(Cn2cc(CN3c4ccccc4Sc4cc(/C=N/NC(=O)c5cccnc5)ccc43)nn2)cc1
4. CN1c2ccccc2Sc2cc(COCc3cn(Cc4ccc(C#N)cc4)nn3)ccc21

// result
1: 100; 2: 100; 3: 50; 4: 25
